These entries and their values trace back to PubChem BioAssay (NCI).

tested on: KM12 colon; assay: NCI tumour cell line growth inhibition, 48 h; in the data active means GI50 below about 0.43 µM; inactive means the rest
Could you please pick one outcome from this set? true (active), false (inactive)

Prompt line: Write down the call the test reported for this molecule. Item: Fc1ccc(-c2ncn(C3CCNCC3)c2-c2ccnc(Oc3cccc(F)c3)n2)cc1
Response line: false

Prompt line: Dear all, I need the recorded test outcome for O=C(/C=C/c1ccco1)Nc1ncc(Cc2ccc(F)cc2)s1 , thank you.
Response line: true

Prompt line: Hi team, can someone confirm the assay call for CC(C)(C)CC(C)(C)c1ccc(OCCOCCSC(=N)N)cc1 ?
Response line: false

Prompt line: Returns: the outcome recorded for CC/C=C\CCC/C=C1/C(=O)C=C[C@@H]1C/C=C\CCCC(=O)O in this assay.
Response line: false

Prompt line: How did this test come out for COc1ccc(/C=C2\COc3ccc(-c4ccccc4)cc3C2=O)cc1O ?
Response line: false

Prompt line: Could you please tell me the result logged for c1ccc(-c2nc(N3CCNCC3)c3nc(-c4ccccc4)oc3n2)cc1 in this assay?
Response line: false

Prompt line: Entry O=C(NNS(=O)(=O)c1cc(C(F)(F)F)cc(C(F)(F)F)c1)c1cnn(-c2ccc(Cl)cc2)c1C(F)(F)F : call = ?
Response line: false

Prompt line: What outcome does the record of this test show for O=C(/C=C\c1ccnc2ccccc12)c1ccc([N+](=O)[O-])cc1 ?
Response line: false

Prompt line: # outcome recorded in this test, key = CCSC1=CC(=O)c2ccccc2C1=O
Response line: false

Prompt line: In this assay, the call recorded for C=C(C)C1/C=C(/C(C)C)CC[C@]2(C)O[C@@H]2CC[C@H](C)CC1=O (stereo not given in full) was what?
Response line: false

---

system: BT-549 breast; experiment: NCI tumour cell line growth inhibition, 48 h
Give measured TGI for each item. Keep answers brief.

Prompt line: Item under review: O/N=C\c1cc(O)c(O)c(/C=N/O)c1 . Reported TGI?
Response line: > 100 µM

Prompt line: // lookup TGI for Cn1ccnc1C(=O)/C=C/c1ccc(C(=O)Nc2nc3ccccc3[nH]2)cc1
Response line: > 25 µM

Prompt line: // TGI lookup, key: CC(C)(C)OC(=O)N1CCC23CCCC2C(=O)CC=C13 (stereo unspecified)
Response line: > 100 µM

Prompt line: Entry Fc1ccc(C(OCCN2CCC3CCC(C2)N3Cc2cc3ccccc3[nH]2)c2ccc(F)cc2)cc1 (stereo unspecified) has what TGI?
Response line: 5.08 µM

Prompt line: Item CC12ON=C(c3ccccc3)N1C=CN1C(c3ccccc3)=NOC12 (stereo unspecified) has what recorded TGI?
Response line: > 100 µM

Prompt line: Given the entry COC(=O)C1=C(C)NC(C)=C([N+](=O)[O-])C1c1cccc(NO)c1 (stereo unspecified) , report its measured TGI.
Response line: 16.4 µM

Prompt line: Recorded TGI for CC1(C)CC(=O)c2c(nc3ccc4ccccc4c3c2-c2ccc(NC(=O)CCCCC(=O)Nc3ccc(-c4c5c(nc6ccc7ccccc7c46)CC(C)(C)CC5=O)cc3)cc2)C1 , please?
Response line: > 100 µM

Prompt line: Fill blank: measured TGI of the compound CCC(=O)NCCc1c[nH]c2ccc(OC)cc12 is ____.
Response line: > 100 µM

Prompt line: I'd like to know its TGI. The compound in question is COC/C=C\[C@@]1(O)CCCC[C@@H]1CC(OC)OC
Response line: > 100 µM

Prompt line: // TGI lookup, key: Cc1cc2c(-c3ccccc3)cc(=O)[nH]c2cc1N
Response line: > 100 µM

Prompt line: Please look up its TGI: COc1ccc(C(O)c2cc3c(N)c(C(=O)Nc4cccc(Br)c4)sc3nc2C)cc1 (stereo unspecified)
Response line: > 23.2 µM

Prompt line: Dear colleague, I am looking for the recorded TGI of the following compound: COc1nc(=O)n(C2CC(N=[N+]=[N-])C(CO)O2)cc1C (stereo unspecified)
Response line: > 100 µM

Prompt line: Using the record for CC(C)[Si]1(C(C)C)OCC2OC(n3ccc(=O)[nH]c3=O)C(O)(CO)C2O[Si](C(C)C)(C(C)C)O1 (stereo unspecified) , report its TGI.
Response line: 30.7 µM

Prompt line: Consider the compound shown here: CCOC(=O)c1nc2cc(C(F)(F)F)ccc2nc1Nc1ccc(Cl)c(Cl)c1 What is its recorded TGI?
Response line: > 100 µM

Prompt line: // lookup TGI for COc1ccc(/C=C2\N=C3SC=C(N)N3C2=O)cc1
Response line: 3.84 µM

Prompt line: Suppose we examine the compound CC#CC(=O)N1CCC[C@H]1c1nc(-c2ccc(C(=O)Nc3ccccn3)cc2)c2c(N)nccn12 ; what TGI value has been reported?
Response line: > 100 µM

Prompt line: Quick check: TGI of CCSC1=CC(=O)c2ccccc2C1=O ?
Response line: 28.3 µM

Prompt line: TGI for Cc1[nH]c2ccccc2c1C=Nc1ccc(Oc2ccccc2)cc1 ?
Response line: 35.5 µM

Prompt line: For CN1CCN(c2ccc3[nH]c(C4=C(O)c5nc(CO)n(C)c5C(=O)C4=O)nc3n2)CC1 , what is its reported TGI?
Response line: > 100 µM

Prompt line: Could you tell me which TGI is on file for COC(=O)CCC1=C(C)c2cc3[n-]c(cc4nc(cc5[n-]c(cc1n2)c(CCC(=O)OC)c5C)C=C4C)cc3C.[Cd+2] ?
Response line: 2.39 µM

Prompt line: Item O=[As](O)(O)c1ccc(Cc2ccc([As](=O)(O)O)cc2)cc1 has what recorded TGI?
Response line: 3.09 µM
